Molecular target: dipeptidyl peptidase IV (Homo sapiens, UniProt P27487)
Sequence (P27487 whole entry, species assumed): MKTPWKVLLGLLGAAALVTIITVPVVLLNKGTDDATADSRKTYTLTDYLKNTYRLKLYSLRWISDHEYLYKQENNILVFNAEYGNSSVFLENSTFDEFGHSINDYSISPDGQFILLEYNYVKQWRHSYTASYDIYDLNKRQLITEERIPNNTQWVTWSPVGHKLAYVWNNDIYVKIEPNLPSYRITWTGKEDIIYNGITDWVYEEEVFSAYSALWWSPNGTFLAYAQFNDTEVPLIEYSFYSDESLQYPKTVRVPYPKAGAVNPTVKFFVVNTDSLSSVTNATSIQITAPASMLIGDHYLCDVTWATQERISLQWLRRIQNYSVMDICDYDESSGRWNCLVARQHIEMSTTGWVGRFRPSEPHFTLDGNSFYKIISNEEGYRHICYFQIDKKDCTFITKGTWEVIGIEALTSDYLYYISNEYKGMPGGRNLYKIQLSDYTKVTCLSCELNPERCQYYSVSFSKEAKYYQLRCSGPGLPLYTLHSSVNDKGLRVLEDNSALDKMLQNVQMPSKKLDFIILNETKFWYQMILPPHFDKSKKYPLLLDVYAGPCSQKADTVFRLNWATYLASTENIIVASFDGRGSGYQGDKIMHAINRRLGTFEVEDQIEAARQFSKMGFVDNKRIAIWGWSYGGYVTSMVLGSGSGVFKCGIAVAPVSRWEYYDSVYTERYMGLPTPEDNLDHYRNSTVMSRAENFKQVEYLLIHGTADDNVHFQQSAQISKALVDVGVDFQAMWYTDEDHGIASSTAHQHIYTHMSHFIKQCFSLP
Assay: biochemical
Conditions: values marked with "*" are ID50 values; read-out: IC50DPIV, values marked with "*" = ID50
measured parameter: IC50 (µM)
Your answer is read as µM, so omit the unit and give the number.

Observed IC50, dipeptidyl peptidase IV (Homo sapiens, UniProt P27487), CCCc1c(C)nc(N)c(C#N)c1-c1ccccc1 [D4.104] : 255

Observed IC50, dipeptidyl peptidase IV (Homo sapiens, UniProt P27487), Nc1ccc(C(=O)NNC(=O)c2ccc(N3C(=O)c4ccc(C(=O)NNC(=O)c5ccc([N+](=O)[O-])cc5)cc4C3=O)cc2)cc1 [D3.117] : 402

Observed IC50, dipeptidyl peptidase IV (Homo sapiens, UniProt P27487), O=C(CC1(O)OC(c2ccccc2)=CC1=O)c1ccccc1 (centres unmarked) [D6.122] : 252

Observed IC50, dipeptidyl peptidase IV (Homo sapiens, UniProt P27487), C/C(=N\NC(=O)CNC(=O)c1ccc(Cl)cc1)c1ccc2ccccc2c1 [D10.122] : 208

Observed IC50, dipeptidyl peptidase IV (Homo sapiens, UniProt P27487), COC(=O)c1cccc(NC(=O)/C(=C\c2ccc3c(c2)OCO3)NC(=O)c2ccc(Br)o2)c1 [D12.043] : 92.2
